- Tested on: recombinant human CFTR carrying the premature stop codon (PTC) mutation G542X
- assay-protocol: CFTR-PTC mutant translation readthrough, Nanoluc tagged CFTR luminescence (G542X cell line)
- Format: cell-based
- applied-conditions: fold over 10 μM G-418; in combination with G418; G542X cell line
metric-name: CFTR G542X ACTIVITY Fold 10 μM G-418

molecule="O=C(O)C1CCN(c2ncc(OCc3c(Cl)cccc3C(F)(F)F)cn2)CC1 [1-(5-{[2-chloro-6-(trifluoromethyl)phenyl]methoxy}pyrimidin-]" tested_on="recombinant human CFTR carrying the premature stop codon (PTC) mutation G542X" endpoint_result="C′ (C′ = <5X)"
molecule=O=C1COC(=O)N1c1ccc(OCc2c(Cl)cccc2Cl)cc1 tested_on="recombinant human CFTR carrying the premature stop codon (PTC) mutation G542X" endpoint_result="B′ (B′ = ≥5X to <10X)"
molecule=NC(=O)N1CCC(c2ncc(OCc3c(Cl)cccc3C(F)(F)F)cn2)CC1 tested_on="recombinant human CFTR carrying the premature stop codon (PTC) mutation G542X" endpoint_result="A′ (A′ = ≥10X)"
molecule=OCc1cc(-c2ccc(OCc3c(Cl)cccc3Cl)cn2)no1 tested_on="recombinant human CFTR carrying the premature stop codon (PTC) mutation G542X" endpoint_result="A′ (A′ = ≥10X)"
molecule=O=C1O[C@@H](CO)CN1c1ccc(OCc2c(Cl)cccc2C(F)(F)F)cn1 tested_on="recombinant human CFTR carrying the premature stop codon (PTC) mutation G542X" endpoint_result="A′ (A′ = ≥10X)"
molecule=O=C1N[C@@H](CO)CN1c1ncc(OCc2c(Cl)cccc2C(F)(F)F)cn1 tested_on="recombinant human CFTR carrying the premature stop codon (PTC) mutation G542X" endpoint_result="C′ (C′ = <5X)"
molecule=OCc1nc(-c2ncc(OCc3c(Cl)cccc3Cl)cn2)co1 tested_on="recombinant human CFTR carrying the premature stop codon (PTC) mutation G542X" endpoint_result="A′ (A′ = ≥10X)"
molecule="O=C1OC(CO)CN1c1ccc(OCc2cc(Cl)cc(Cl)c2)cc1 (stereo not shown)" tested_on="recombinant human CFTR carrying the premature stop codon (PTC) mutation G542X" endpoint_result="B′ (B′ = ≥5X to <10X)"
molecule="Cc1cccc(C(F)(F)F)c1COc1cnc(N2CCC(C(N)=O)C2)nc1 (stereo not shown)" tested_on="recombinant human CFTR carrying the premature stop codon (PTC) mutation G542X" endpoint_result="A′ (A′ = ≥10X)"
molecule=Cc1cccc(C)c1COc1ccc(-n2ccc(CO)n2)nc1 tested_on="recombinant human CFTR carrying the premature stop codon (PTC) mutation G542X" endpoint_result="A′ (A′ = ≥10X)"
